Test system: MDA-MB-231 breast
test: NCI tumour cell line growth inhibition, 48 h
Quick reference for TGI among some compounds

| compound | assayed.target | bound.sign | TGI, µM |
| --- | --- | --- | --- |
| O=[N+]([O-])c1cc(O)c(O)cc1-c1cn2ccsc2n1 | MDA-MB-231 breast | > | 100 |
| Cc1ccc(NC(=S)Nc2c(C)n(C)n(-c3ccccc3)c2=O)cc1 | MDA-MB-231 breast | > | 100 |
| CCCCCCCCCCCCCCCC(=O)OCC1OC(n2cnc3c(=S)nc(N)[nH]c32)C(OC(=O)CCCCCCCCCCCCCCC)C1OC(=O)CCCCCCCCCCCCCCC (stereo not drawn) | MDA-MB-231 breast | > | 22.1 |
| CNC(=O)c1c(NC(=O)c2cccc(C(F)(F)F)c2)sc2c1CCC(=O)C2 | MDA-MB-231 breast | = | 1.88 |
| c1cc(C2CCCCC2)ccc1OCCCCCCN1CCNCC1 | MDA-MB-231 breast | = | 3.29 |
| Cc1ccc(-n2c(O)c3c(N)n[nH]c3c(C#N)c2=O)cc1 | MDA-MB-231 breast | > | 100 |
| O=C(NCCCCNCCCNC(=O)c1ccccc1)c1ccccc1 | MDA-MB-231 breast | > | 100 |
| O=C1OC2(C(F)(F)F)Oc3ccccc3CN2C12CCCCC2 (stereo not drawn) | MDA-MB-231 breast | = | 59.5 |
| O=C(Nc1nnc(-c2ccccc2)o1)C(SC(=S)N1CCOCC1)c1ccccc1 (stereo not drawn) | MDA-MB-231 breast | > | 100 |
| O=C(/C=C/c1ccc(-c2ccccc2)cc1)NCc1ccc(C(=O)NCCc2c[nH]c3ccccc23)cc1 | MDA-MB-231 breast | = | 42.1 |
| CCON=C1C(C)(C)C(C)(C)C(C)(C)C1(C)C | MDA-MB-231 breast | > | 100 |
| COc1ccc(-c2nc(-c3cc4ccccc4oc3=O)cs2)cc1 | MDA-MB-231 breast | = | 53.8 |
| CN(C)C(=S)NN=C(c1ccccn1)c1ccccn1 | MDA-MB-231 breast | = | 27.8 |
